procedureDetails: In vivo pharmacokinetics in ICR mice
setupConditions: mouse, plasma, PO, 10 mg/kg intragastric, read-out: MRT(0-t)

lineNotation	unitInfo	MRT last
Cc1cc2cc(n1)-c1cnn(C)c1OCCC[C@@H](C1CC1)CN1/C(=N/C2=O)Nc2ccc(N(C)C3CCN(C)CC3)cc21	h	6.79
Cc1cc2cc(n1)-c1cnn(C)c1OCCC[C@@H](C1CC1)CN1/C(=N/C2=O)Nc2ccc(N[C@@H](C)CN(C)C)cc21	h	8.26
Cc1cc2cc(n1)-c1cnn(C)c1OCCC[C@@H](C1CC1)CN1/C(=N/C2=O)Nc2ccc(N[C@H]3C[C@H](N(C)C)C3)cc21	h	6.81
Cc1cc2cc(n1)-c1cnn(C)c1OCCC[C@@H](C1CC1)CN1/C(=N/C2=O)Nc2cc(NCCCN3CCOCC3)ccc21	h	6.42
Cc1cc2cc(n1)-c1cnn(C)c1OCCC[C@@H](C1CC1)CN1/C(=N/C2=O)Nc2cc(NC3(C)COC3)ccc21	h	5.99
CCC1(Nc2ccc3c(c2)N/C2=N\C(=O)c4cc(C)nc(c4)-c4cnn(C)c4OCCC[C@@H](C4CC4)CN23)COC1	h	6.47
Cc1cc2cc(n1)-c1cnn(C)c1OCCC[C@@H](C1CC1)CN1/C(=N/C2=O)Nc2cc(NCCCN3CCCCC3)ccc21	h	7.85
Cc1cc2cc(n1)-c1cnn(C)c1OCCC[C@@H](C1CC1)CN1/C(=N/C2=O)Nc2ccc(NCCN(C)C)cc21	h	7.72
Cc1cc2cc(n1)-c1cnn(C)c1OCCC[C@@H](C1CC1)CN1/C(=N/C2=O)Nc2cc(N[C@@H](C)CN(C)C)ccc21	h	7.54

====

testedTarget: EGFR (d746-750/T790M/C797S) (Homo sapiens (Human), UniProt P00533, C797S/DEL746-750/T790M)
Sequence (P00533 other isoform, or with tags, fused parts or gaps T790M/C797S/del 1-694/del 746-750 limits assumed): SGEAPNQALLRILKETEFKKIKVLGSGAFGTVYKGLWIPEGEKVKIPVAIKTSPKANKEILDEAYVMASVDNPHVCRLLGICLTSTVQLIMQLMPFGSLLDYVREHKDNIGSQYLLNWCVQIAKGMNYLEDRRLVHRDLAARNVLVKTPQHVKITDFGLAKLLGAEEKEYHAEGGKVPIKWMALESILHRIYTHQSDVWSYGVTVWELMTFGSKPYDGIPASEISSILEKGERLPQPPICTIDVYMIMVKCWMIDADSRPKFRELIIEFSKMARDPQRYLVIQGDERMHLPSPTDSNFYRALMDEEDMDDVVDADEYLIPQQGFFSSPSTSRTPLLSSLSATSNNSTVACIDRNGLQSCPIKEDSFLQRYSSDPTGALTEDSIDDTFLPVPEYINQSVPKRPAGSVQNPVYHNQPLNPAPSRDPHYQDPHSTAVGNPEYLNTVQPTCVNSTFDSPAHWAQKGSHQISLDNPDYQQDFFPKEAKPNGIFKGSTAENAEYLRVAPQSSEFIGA
procedureDetails: Inhibitory activity for EGFR (d746-750/T790M/C797S) kinase
setupConditions: ATP 5 μM; read-out: EGFR(d19/T790M/C797S) (IC50)
# maps each entry to its log10 IC50
valueType: log10 IC50 (log10 of the value in nM)

lineNotation	log10 IC50
Cc1cc2cc(n1)-c1cnn(C)c1OCCC[C@@H](C1CC1)CN1/C(=N/C2=O)Nc2cc(N[C@@H]3CC[C@@H](N(C)C)C3)ccc21	-1.19
Cc1cc2cc(n1)-c1cnn(C)c1OCCC[C@@H](C1CC1)CN1/C(=N/C2=O)Nc2ccc(OCCN(C)C)cc21	-1.62
Cc1cc2cc(n1)-c1cnn(C)c1OCCC[C@@H](C1CC1)CN1/C(=N/C2=O)Nc2cc(N[C@H]3CC[C@H](N(C)C)CC3)ccc21	-1.85
Cc1cc2cc(n1)-c1cnn(C)c1OCCC[C@@H](C1CC1)CN1/C(=N/C2=O)Nc2cc(N[C@H]3CC[C@H](O)CC3)ccc21	-0.92
Cc1cc2cc(n1)-c1cnn(C)c1OCCC[C@@H](C1CC1)CN1/C(=N/C2=O)Nc2cc(N[C@@H](C)CN3CCCCC3)ccc21	-1.06
Cc1cc2cc(n1)-c1cnn(C)c1OCCC[C@@H](C1CC1)CN1/C(=N/C2=O)Nc2ccc(NCCN(C)C)cc21	-1.96
Cc1cc2cc(n1)-c1cnn(C)c1OCCC[C@@H](C1CC1)CN1/C(=N/C2=O)Nc2cc(NC3CCN(C(C)C)CC3)ccc21	-1.57
Cc1cc2cc(n1)-c1cnn(C)c1OCCC[C@@H](C1CC1)CN1/C(=N/C2=O)Nc2ccc(NC3CCN(C(C)C)CC3)cc21	-1.68
Cc1cc2cc(n1)-c1cnn(C)c1OCCC[C@@H](C1CC1)CN1/C(=N/C2=O)Nc2ccc(N[C@H]3CC[C@@H](N(C)C)C3)cc21	-1.18
Cc1cc2cc(n1)-c1cnn(C)c1OCCC[C@@H](C1CC1)CN1/C(=N/C2=O)Nc2cc(NC3(C)COC3)ccc21	-1.82
Cc1cc2cc(n1)-c1cnn(C3CC3)c1OCCC[C@@H](C)CN1/C(=N/C2=O)Nc2cc(NC3CCN(C)CC3)ccc21	-0.77
CNCCCCNc1ccc2c(c1)N/C1=N\C(=O)c3cc(C)nc(c3)-c3cnn(C)c3OCCC[C@@H](C3CC3)CN12	-1.55
Cc1cc2cc(n1)-c1cnn(C)c1OCCC[C@@H](C1CC1)CN1/C(=N/C2=O)Nc2ccc(N[C@@H]3CC[C@@H](N(C)C)C3)cc21	-1.25
